- Test system: UACC-62
- ASSAY_PROTOCOL: NCI tumour cell line growth inhibition, 48 h
Calls of active or inactive are those of the source. No stated cut-off is given here; in the data, active = GI50 up to about 1.1 µM and inactive = higher.
PROPERTY: GI50

Look up GI50 for this molecule: NC(N)=NN/C(=C1/N=c2ccc([N+](=O)[O-])cc2=NC1=O)C(O)c1ccco1 (stereo unspecified)
> 100 µM (inactive)

Look up GI50 for this molecule: S=C1ON=C(c2ccccc2)/C1=C/Nc1ccccc1
3.24 µM (inactive)

Look up GI50 for this molecule: COc1ccc(C2S/C(=C\c3cccc([N+](=O)[O-])c3)C(=O)N2NC(=O)Cc2ccccc2)cc1 (stereo unspecified)
> 100 µM (inactive)

Look up GI50 for this molecule: CCc1cccc(CC)c1NC(=S)NC(=O)c1ccc(Br)cc1
19.7 µM (inactive)

Look up GI50 for this molecule: Cc1ccc(Cl)cc1/N=N/C(=O)NNc1cc(Cl)ccc1C
11.2 µM (inactive)

Look up GI50 for this molecule: Cn1nnc2c(C(N)=O)ncn2c1=O [TEMOZOLOMIDE]
> 100 µM (inactive)
